- SUBJECT_OF_TEST: M. tuberculosis ribonucleotide reductase (Mycobacterium tuberculosis)
- Sequence (P9WH75 3-725): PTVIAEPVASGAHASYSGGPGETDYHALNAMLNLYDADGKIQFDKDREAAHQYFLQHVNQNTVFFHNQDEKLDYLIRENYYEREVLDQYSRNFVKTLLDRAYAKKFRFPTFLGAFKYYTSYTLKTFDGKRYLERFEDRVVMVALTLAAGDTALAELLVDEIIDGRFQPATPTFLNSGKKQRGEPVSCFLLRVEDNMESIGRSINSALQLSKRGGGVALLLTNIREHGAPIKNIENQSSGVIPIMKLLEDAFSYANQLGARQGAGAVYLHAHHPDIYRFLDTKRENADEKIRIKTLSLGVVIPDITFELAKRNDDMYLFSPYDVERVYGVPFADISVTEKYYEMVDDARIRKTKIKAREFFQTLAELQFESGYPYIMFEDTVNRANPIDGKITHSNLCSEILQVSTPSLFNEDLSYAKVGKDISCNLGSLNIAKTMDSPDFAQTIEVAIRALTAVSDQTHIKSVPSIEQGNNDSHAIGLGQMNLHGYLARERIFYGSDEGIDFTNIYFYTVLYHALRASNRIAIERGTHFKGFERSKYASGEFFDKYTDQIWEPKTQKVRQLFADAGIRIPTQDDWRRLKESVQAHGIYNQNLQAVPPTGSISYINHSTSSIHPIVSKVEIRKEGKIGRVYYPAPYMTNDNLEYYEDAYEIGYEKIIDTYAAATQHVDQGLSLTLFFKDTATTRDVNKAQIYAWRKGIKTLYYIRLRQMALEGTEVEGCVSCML
- RUN_DESCRIPTION: biochemical
- Type: biochemical
- CONDITIONS: read-out: IC50, inhibition of the activity of CDP reduction by hydroxyurea
PROPERTY: pIC50
# pIC50 is unitless: minus log10 of the molar concentration; print number only

Input line: Lab note: need pIC50 for NC(=O)NO [hydroxyurea] on M. tuberculosis ribonucleotide reductase (Mycobacterium tuberculosis), anyone have it?
Output line: 2.70
